- TESTED SYSTEM: T1, EsCas13d, nuclease-dead (Eubacterium siraeum, UniProt B0MS50, R295A;H300A;R849A;H854A)
- T1 sequence: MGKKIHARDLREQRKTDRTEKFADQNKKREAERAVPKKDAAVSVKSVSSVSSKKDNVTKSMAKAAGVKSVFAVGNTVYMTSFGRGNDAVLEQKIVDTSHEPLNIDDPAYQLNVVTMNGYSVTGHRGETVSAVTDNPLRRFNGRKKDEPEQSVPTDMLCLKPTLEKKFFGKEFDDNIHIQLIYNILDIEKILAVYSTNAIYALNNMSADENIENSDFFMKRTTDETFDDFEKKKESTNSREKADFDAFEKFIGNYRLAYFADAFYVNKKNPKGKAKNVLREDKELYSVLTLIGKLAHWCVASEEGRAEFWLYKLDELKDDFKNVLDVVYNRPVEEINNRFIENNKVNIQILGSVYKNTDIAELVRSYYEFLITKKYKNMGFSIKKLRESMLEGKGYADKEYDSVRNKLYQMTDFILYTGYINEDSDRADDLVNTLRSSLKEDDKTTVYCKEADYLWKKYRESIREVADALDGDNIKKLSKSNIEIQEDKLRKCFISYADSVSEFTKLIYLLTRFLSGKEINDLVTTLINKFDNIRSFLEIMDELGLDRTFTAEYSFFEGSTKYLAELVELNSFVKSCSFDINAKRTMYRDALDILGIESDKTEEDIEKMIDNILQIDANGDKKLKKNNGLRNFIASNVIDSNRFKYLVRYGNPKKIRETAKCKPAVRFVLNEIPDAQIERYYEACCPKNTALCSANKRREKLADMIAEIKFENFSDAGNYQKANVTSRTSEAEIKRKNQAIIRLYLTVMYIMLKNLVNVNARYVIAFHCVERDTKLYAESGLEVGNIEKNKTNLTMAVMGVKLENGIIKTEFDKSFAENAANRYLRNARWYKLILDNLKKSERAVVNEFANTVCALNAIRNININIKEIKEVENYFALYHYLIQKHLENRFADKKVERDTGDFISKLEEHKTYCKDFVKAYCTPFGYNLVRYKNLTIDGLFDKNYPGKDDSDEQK
- ASSAY DETAILS: crRNA (strand 1, pre-loaded); Mg2+; 40 mM Tris-HCl pH 7.5, 150 mM NaCl, 6 mM MgCl2, 1 mM DTT, 0.1% Tween-20, 0.2 mg/ml BSA; 25 C; 10 min per concentration, then washed
- RUN PARAMETERS: tags: His6-TwinStrep-SUMO cleaved; N-terminal SNAP kept (SNAP-Surface 488); label: 3' end held by stalled T7 RNA polymerase

BINDER | Kd / nM
target 3 U2A,A5U (mixed) RNA 1: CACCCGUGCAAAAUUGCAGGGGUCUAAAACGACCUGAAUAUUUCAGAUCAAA RNA 2: GGGAAUGGAUCCACAUCUACGAAUUCGUUUUUGAUCUGAAAUAUUCUGGACUGCAGAUCGGAAGAGCACACGU | 7.35
target 2 MT 5'PFS ACA 3'PFS UCU (mixed) RNA 1: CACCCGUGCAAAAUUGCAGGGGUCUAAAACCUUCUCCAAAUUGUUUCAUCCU RNA 2: GGGAAUGGAUCCACAUCUACGAAUUCACAAGGAUGAAACAAUUUGGAGAAGUCUAGAUCGGAAGAGCACACGU | 8.6
target 3 insU 3' of 6,insU 3' of 4 (mixed) RNA 1: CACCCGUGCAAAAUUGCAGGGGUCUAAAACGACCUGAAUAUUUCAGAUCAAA RNA 2: GGGAAUGGAUCCACAUCUACGAAUUCGUUUUUGAUCUGAAAUAUUCUAGUGUCUGCAGAUCGGAAGAGCACACGU | 6.95

src = paper PMC10786891
